These measurements were taken from PubChem BioAssay (Tox21).

molecular target: Muscarinic acetylcholine receptor M1 (Homo sapiens) (UniProt P11229); assay: Cholinergic receptor muscarinic 1 (CHRM1) small molecule antagonists, cell-based qHTS assay (AID 1963588); conditions: CHRM1-CHO antagonist mode, calcium flux fluorescence; series mostly up to 61.5 µM; further: nearly all actives have a fitted effect of over 40% in size
Sequence (P11229 whole entry, looked up): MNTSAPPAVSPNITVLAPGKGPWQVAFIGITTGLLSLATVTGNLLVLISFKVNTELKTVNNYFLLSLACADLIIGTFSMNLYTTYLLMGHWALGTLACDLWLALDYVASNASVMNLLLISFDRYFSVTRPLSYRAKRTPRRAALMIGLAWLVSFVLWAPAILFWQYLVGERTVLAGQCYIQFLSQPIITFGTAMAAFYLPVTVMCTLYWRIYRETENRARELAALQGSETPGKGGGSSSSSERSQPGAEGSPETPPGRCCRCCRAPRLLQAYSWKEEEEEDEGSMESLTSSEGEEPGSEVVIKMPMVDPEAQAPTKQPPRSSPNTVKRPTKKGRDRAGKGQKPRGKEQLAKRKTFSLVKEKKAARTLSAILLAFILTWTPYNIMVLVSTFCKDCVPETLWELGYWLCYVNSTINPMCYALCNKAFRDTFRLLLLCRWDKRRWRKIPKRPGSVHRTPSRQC
Inconclusive results are not listed. Activity calls are given as the source filed them. The call rests on the fitted dose curve.
measure.name: outcome

1. O=C(c1ccccc1)C(Cl)Cl ... inactive
2. O=[N+]([O-])c1ccc2ccc3cccc4ccc1c2c34 ... inactive
3. O=[Se]=O ... inactive
4. CC1=C(C(=O)Nc2ccccc2)S(=O)(=O)CCO1 ... inactive
5. NC(=O)c1ccc(N)nc1 ... inactive
6. CCN(CC)C(C)C(=O)c1ccccc1 (stereo not drawn) ... inactive
7. [Cl][Hg][c]1ccccc1 ... inactive
8. CCC/C(=N\OCC)C1=C(O)CC(CC(C)SCC)CC1=O (stereo not drawn) ... inactive
